Test: In vitro toxicity
Type: cell-based, murine
Settings: mouse, J774.16 macrophage cells
PROPERTY_MEASURED: EC50 at 48 h (µg/mL)

# MOLECULE, RESULT_VALUE
rows = [
    ("Cc1ccccc1C(=O)NN=Cc1ccc(O)c(Br)c1", 50),
    ("O=C(NN=Cc1ccc(O)c(Br)c1)c1cccc(Br)c1", 50),
]

----------
Test: Pharmacokinetics of BHBM in mice
Format: in vivo, mouse (C3H/HeN)
Settings: C3H/HeN, mouse, plasma, ip, 1.6 mg/kg, T1/2, IP 1.6 mg/kg (high dose), IS/IN mice

# MOLECULE, half-life, min
measured = [
    ("Cc1ccccc1C(=O)NN=Cc1ccc(O)c(Br)c1 [BHBM]", 50.4),
]

Taken from paper PMC4479701.
